Origin of measurements: BindingDB's records for doi:10.1016/j.bmcl.2010.07.082

# method: Antagonist activity at CCR1 in human THP1 cells assessed as inhibition of CCL3-induced chemotaxis after 3 hrs
measured_metric: IC50 (nM)
Numbers only, in nM.

{"columns": ["molecule", "IC50 (nM)"],
 "data": [
  ["O=C(Nc1ccc(C(F)(F)F)cc1)N1CCC[C@@H]1c1nncn1Cc1ccc(Cl)cc1", 4],
  ["O=C(Nc1ccc(C(F)(F)F)cc1)N1CCC[C@@H]1c1nnnn1Cc1ccc(Cl)cc1", 6.5],
  ["O=C(Nc1ccc(C(F)(F)F)cc1)N1CCCC1c1nccn1Cc1ccc(Cl)cc1 (stereo not given)", 16]
]}

Return reported IC50 values for all items listed beneath this line.
1. O=C(Nc1ccc(C(F)(F)F)cc1)N1CCC[C@@H]1c1ncnn1Cc1ccc(Cl)cc1
2. Cc1nnc([C@H]2CCCN2C(=O)Nc2ccc(C(F)(F)F)cc2)n1Cc1ccc(Cl)cc1

1. 22
2. 2.9
